target: recombinant human SGK-1 enzyme (Homo sapiens, UniProt O00141); assay: Enzymatic activity assay: SGK-1 substrate peptide phosphorylation (Caliper lab-chip mobility shift); type: biochemical; details: peptide substrate 1 μM, ATP 10 μM, 60 min at 37° C., read-out: IC50 values for inhibition of SGK-1 enzymatic activity
Sequence (O00141 whole entry, looked up): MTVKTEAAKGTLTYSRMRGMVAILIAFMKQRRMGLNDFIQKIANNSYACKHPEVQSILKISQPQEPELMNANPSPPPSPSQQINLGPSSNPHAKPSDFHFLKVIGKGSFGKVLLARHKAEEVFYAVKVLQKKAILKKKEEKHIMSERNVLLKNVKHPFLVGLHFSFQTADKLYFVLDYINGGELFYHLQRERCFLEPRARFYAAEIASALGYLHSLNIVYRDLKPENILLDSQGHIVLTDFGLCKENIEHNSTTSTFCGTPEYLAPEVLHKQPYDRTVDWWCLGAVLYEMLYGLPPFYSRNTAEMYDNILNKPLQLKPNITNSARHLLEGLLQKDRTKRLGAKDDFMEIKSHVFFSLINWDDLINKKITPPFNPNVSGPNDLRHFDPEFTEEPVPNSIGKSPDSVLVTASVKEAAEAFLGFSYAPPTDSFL

>  <compound>
Cc1ccc(C#N)c(S(=O)(=O)Nc2ccc(-c3nc(OC4CCCNC4)c4c(C)n[nH]c4n3)cc2)c1 (centres unmarked)

>  <experimental.system>
recombinant human SGK-1 enzyme (Homo sapiens, UniProt O00141)

>  <comparator>
=

>  <IC50, µM>
0.0037

$$$$
>  <compound>
Cc1n[nH]c2nc(-c3ccc(NS(=O)(=O)c4cc(Cl)ccc4F)cc3)nc(OC3CCN(C(C)C)CC3)c12

>  <experimental.system>
recombinant human SGK-1 enzyme (Homo sapiens, UniProt O00141)

>  <comparator>
=

>  <IC50, µM>
0.0032

$$$$
>  <compound>
O=S(=O)(Nc1ccc(-c2nc(O[C@H]3CC[C@@H](O)CC3)c3cn[nH]c3n2)cc1)c1cc(Cl)ccc1Cl

>  <experimental.system>
recombinant human SGK-1 enzyme (Homo sapiens, UniProt O00141)

>  <comparator>
<

>  <IC50, µM>
0.0015

$$$$
>  <compound>
Cc1nc(-c2ccc(NS(=O)(=O)c3cccc(Cl)c3C#N)cc2)nc2[nH]nc(N)c12

>  <experimental.system>
recombinant human SGK-1 enzyme (Homo sapiens, UniProt O00141)

>  <comparator>
=

>  <IC50, µM>
0.011

$$$$
>  <compound>
Nc1n[nH]c2nc(-c3ccc(NS(=O)(=O)c4cccc(Cl)c4F)cc3)ncc12

>  <experimental.system>
recombinant human SGK-1 enzyme (Homo sapiens, UniProt O00141)

>  <comparator>
=

>  <IC50, µM>
0.35

$$$$
>  <compound>
COc1ccc(C#N)c(S(=O)(=O)Nc2ccc(-c3nc(C4CC4)c4c(N)n[nH]c4n3)cc2)c1

>  <experimental.system>
recombinant human SGK-1 enzyme (Homo sapiens, UniProt O00141)

>  <comparator>
<

>  <IC50, µM>
0.0015

$$$$
>  <compound>
Cc1ccc(F)c(S(=O)(=O)Nc2ccc(-c3nc(N4CC(CO)C4)c4cn[nH]c4n3)cc2)c1

>  <experimental.system>
recombinant human SGK-1 enzyme (Homo sapiens, UniProt O00141)

>  <comparator>
=

>  <IC50, µM>
0.016

$$$$
>  <compound>
COc1ccc(Cl)c(S(=O)(=O)Nc2ccc(-c3nc(OCC(C)C)c4c(N)n[nH]c4n3)cc2)c1

>  <experimental.system>
recombinant human SGK-1 enzyme (Homo sapiens, UniProt O00141)

>  <comparator>
=

>  <IC50, µM>
0.027

$$$$
>  <compound>
COCCc1nc(-c2ccc(NS(=O)(=O)c3ccc(F)cc3Cl)cc2)nc2[nH]nc(N)c12

>  <experimental.system>
recombinant human SGK-1 enzyme (Homo sapiens, UniProt O00141)

>  <comparator>
=

>  <IC50, µM>
1.5

$$$$
>  <compound>
Cc1ccc(C#N)c(S(=O)(=O)Nc2ccc(-c3nc(OCC4CNC(=O)C4)c4cn[nH]c4n3)cc2)c1 (centres unmarked)

>  <experimental.system>
recombinant human SGK-1 enzyme (Homo sapiens, UniProt O00141)

>  <comparator>
=

>  <IC50, µM>
0.002

$$$$
>  <compound>
CC(C)Oc1nc(-c2ccc(NS(=O)(=O)c3cc(Cl)ccc3Cl)cc2)nc2[nH]nc(N)c12

>  <experimental.system>
recombinant human SGK-1 enzyme (Homo sapiens, UniProt O00141)

>  <comparator>
=

>  <IC50, µM>
0.0083

$$$$
>  <compound>
Cc1ccc(F)c(S(=O)(=O)Nc2ccc(-c3nc(OC4C[C@@H](O)C[C@@H](O)C4)c4cn[nH]c4n3)cc2)c1 (some centres unmarked)

>  <experimental.system>
recombinant human SGK-1 enzyme (Homo sapiens, UniProt O00141)

>  <comparator>
<

>  <IC50, µM>
0.0015

$$$$
>  <compound>
Cc1ccc(C#N)c(S(=O)(=O)Nc2ccc(-c3nc(OCC(CO)CO)c4c(C)n[nH]c4n3)cc2)c1

>  <experimental.system>
recombinant human SGK-1 enzyme (Homo sapiens, UniProt O00141)

>  <comparator>
=

>  <IC50, µM>
0.0039

$$$$
>  <compound>
O=S(=O)(Nc1ccc(-c2nc(OCC(F)(F)F)c3cn[nH]c3n2)cc1)c1cc(Cl)ccc1Cl

>  <experimental.system>
recombinant human SGK-1 enzyme (Homo sapiens, UniProt O00141)

>  <comparator>
=

>  <IC50, µM>
0.019

$$$$
>  <compound>
Cc1ccc(F)c(S(=O)(=O)Nc2ccc(-c3nc(OCC(C)C)c4c(N)n[nH]c4n3)cc2)c1

>  <experimental.system>
recombinant human SGK-1 enzyme (Homo sapiens, UniProt O00141)

>  <comparator>
=

>  <IC50, µM>
0.011

$$$$
>  <compound>
Cc1nc(-c2ccc(NS(=O)(=O)c3cccc(Cl)c3F)cc2)nc2[nH]nc(N)c12

>  <experimental.system>
recombinant human SGK-1 enzyme (Homo sapiens, UniProt O00141)

>  <comparator>
=

>  <IC50, µM>
0.04

$$$$
>  <compound>
Cc1ccc(C#N)cc1S(=O)(=O)Nc1ccc(-c2nc(C)c3c(N)n[nH]c3n2)cc1

>  <experimental.system>
recombinant human SGK-1 enzyme (Homo sapiens, UniProt O00141)

>  <comparator>
=

>  <IC50, µM>
0.032

$$$$

###

Examples of compounds with documented IC50 follow.
molecular target: recombinant human SGK-1 enzyme (Homo sapiens, UniProt O00141); test: Enzymatic activity assay: SGK-1 substrate peptide phosphorylation (Caliper lab-chip mobility shift); format: biochemical; conditions: peptide substrate 1 μM, ATP 10 μM, 60 min at 37° C., read-out: IC50 values for inhibition of SGK-1 enzymatic activity

>  <compound>
COc1ccc(F)c(S(=O)(=O)Nc2ccc(-c3nc(OC)c4cn[nH]c4n3)cc2)c1

>  <unit.abbreviation>
nM

>  <comparator>
=

>  <IC50>
3.5

$$$$
>  <compound>
CCOc1nc(-c2ccc(NS(=O)(=O)c3cc(F)c(F)cc3Cl)cc2)cc2[nH]nc(N)c12

>  <unit.abbreviation>
nM

>  <comparator>
=

>  <IC50>
97

$$$$
>  <compound>
Nc1n[nH]c2nc(-c3ccc(NS(=O)(=O)c4cc(Cl)ccc4Cl)cc3)nc(OCC3CC3)c12

>  <unit.abbreviation>
nM

>  <comparator>
=

>  <IC50>
13

$$$$
>  <compound>
Cc1nc(-c2ccc(NS(=O)(=O)c3cc4c(cc3Cl)OCCCO4)cc2)nc2[nH]nc(N)c12

>  <unit.abbreviation>
nM

>  <comparator>
=

>  <IC50>
3.9

$$$$
>  <compound>
COc1cc(Oc2nc(-c3ccc(NS(=O)(=O)c4cc(Cl)ccc4F)cc3)cc3[nH]nc(C)c23)ccn1

>  <unit.abbreviation>
nM

>  <comparator>
=

>  <IC50>
25

$$$$
>  <compound>
Nc1n[nH]c2nc(-c3ccc(NS(=O)(=O)c4cc(F)c(F)cc4Cl)cc3)ncc12

>  <unit.abbreviation>
nM

>  <comparator>
=

>  <IC50>
250

$$$$
>  <compound>
Cc1n[nH]c2nc(-c3ccc(NS(=O)(=O)c4cc(F)ccc4F)cc3)nc(OC3CCCNC3)c12 (stereo not shown)

>  <unit.abbreviation>
nM

>  <comparator>
=

>  <IC50>
6.9

$$$$
>  <compound>
O=S(=O)(Nc1ccc(-c2nc(O[C@H]3CCCC[C@H]3O)c3cn[nH]c3n2)cc1)c1cc(Cl)ccc1Cl

>  <unit.abbreviation>
nM

>  <comparator>
=

>  <IC50>
12

$$$$
>  <compound>
Cc1n[nH]c2nc(-c3ccc(NS(=O)(=O)c4ccccc4F)cc3)nc(OCC3CNCCO3)c12 (stereo not shown)

>  <unit.abbreviation>
nM

>  <comparator>
=

>  <IC50>
23

$$$$
>  <compound>
CC(C)COc1nc(-c2ccc(NS(=O)(=O)c3cc(Cl)ccc3F)cc2)nc2[nH]nc(N)c12

>  <unit.abbreviation>
nM

>  <comparator>
=

>  <IC50>
20

$$$$
>  <compound>
Nc1n[nH]c2nc(-c3ccc(NS(=O)(=O)c4ccccc4F)cc3)ncc12

>  <unit.abbreviation>
nM

>  <comparator>
=

>  <IC50>
420

$$$$
>  <compound>
Cc1ccc(F)c(S(=O)(=O)Nc2ccc(-c3nc(O)c4cn[nH]c4n3)cc2)c1

>  <unit.abbreviation>
nM

>  <comparator>
=

>  <IC50>
25

$$$$
>  <compound>
Nc1n[nH]c2cc(-c3ccc(NS(=O)(=O)c4cc(Cl)ccc4F)cc3)ncc12

>  <unit.abbreviation>
nM

>  <comparator>
=

>  <IC50>
19

$$$$
>  <compound>
CCN1CCC(Oc2nc(-c3ccc(NS(=O)(=O)c4ccccc4F)cc3)nc3[nH]nc(C)c23)CC1

>  <unit.abbreviation>
nM

>  <comparator>
=

>  <IC50>
13

$$$$
>  <compound>
Cc1ccc(F)c(S(=O)(=O)Nc2ccc(-c3ncc4c(C)n[nH]c4n3)cc2)c1

>  <unit.abbreviation>
nM

>  <comparator>
<

>  <IC50>
1.5

$$$$
>  <compound>
CC(C)COc1nc(-c2ccc(NS(=O)(=O)c3ccccc3Cl)cc2)nc2[nH]nc(N)c12

>  <unit.abbreviation>
nM

>  <comparator>
=

>  <IC50>
480

$$$$
